The values you see were collected from patent US12319643B2.

Recorded EE* (%) Encapsulation efficiency for siRNA for the following molecules
Test name: Encapsulation efficiency for siRNA of lipid (nanoparticle) formulations
Type: physicochemical
Setup conditions: Table 8: nanoparticles Ionizable compound/DOPE/DOPC/Cholesterol/DMPE-PEG 50/28/0/21/1, 50/28/0/20/2 or 26/21/21/31/1 mol %
Assay readout: EE* (%) Encapsulation efficiency for siRNA

* CCCCC/C=C\C/C=C\CCCCCCCCOC(=O)CC(CC(=O)OCCCCCCCC/C=C\C/C=C\CCCCC)NC(=O)SCCN(C)C | 92
* CCCC/C=C\C/C=C\CCCCCCCCOC(=O)CC(CC(=O)OCCCCCCCC/C=C\C/C=C\CCCCC)NC(=O)C[N+](C)(C)C (stereo not drawn) | 95
* CCCCC/C=C\C/C=C\CCCCCCCC(=O)OCCN(CCOC(=O)CCCCCCC/C=C\C/C=C\CCCCC)C(=O)CN1C[C@@H](O)[C@@H](O)C1 | 96

====

Test system: GFP
Test name: EC50 of nanoparticle formulations, GFP siRNA
Assay type: cell-based
Setup conditions: nanoparticles Ionizable compound/DOPE/Cholesterol/DMPE-PEG 50/28/21/1 mol %
Method: Example 39: Formulations were Prepared for Encapsulating a Small Interfering Nucleic Acid Agents (siRNA) Lipid nanoparticle formulations were prepared with the following compositions: […] (Ionizable compound/DOPE/Cholesterol/DMPE-PEG) mol % • 50/28/21/1. The formulations were capable of encapsulating the siRNA, and retaining stability in human serum.
Recorded EC50 for the following molecules
Assay readout: EC50 (nM)

• CCCC/C=C\C/C=C\CCCCCCCCOC(=O)CC(CC(=O)OCCCCCCCC/C=C\C/C=C\CCCCC)NC(=O)C[N+](C)(C)C (centres unmarked) = 33
• CCCCCCCCCCCCCC(=O)OCCN(CCOC(=O)CCCCCCCCCCCCC)C(=O)CN1CC(CO)C1 = 31
• CCCCC/C=C\C/C=C\CCCCCCCC(=O)OCCN(CCCN(C)C)C(=O)CCCCCCC/C=C\C/C=C\CCCCC = 33
• CCCCC/C=C\C/C=C\CCCCCCCC(=O)OCCN(CCOC(=O)CCCCCCC/C=C\C/C=C\CCCCC)C(=O)OCCN(C)C = 35
• CCCCC/C=C\C/C=C\CCCCCCCC(=O)OCCN(CCOC(=O)CCCCCCC/C=C\C/C=C\CCCCC)C(=O)CN1CCN(CCO)CC1 = 7.4

====

Recorded t(½) (hr) human serum 37 C. for the following compounds
Test name: Serum stability of nanoparticle formulations, t(½) in human serum at 37 C
Type: in vitro ADME
Setup conditions: Table 10, nanoparticles Ionizable compound/DOPE/Cholesterol/DMPE-PEG 50/28/21/1 mol %
Assay readout: t(½) (hr) human serum 37 C.

• CCCCC/C=C\C/C=C\CCCCCCCCOC(=O)CC(CC(=O)OCCCCCCCC/C=C\C/C=C\CCCCC)NC(=O)SCCN(C)C = >50 h
• CCCCC/C=C\C/C=C\CCCCCCCCOC(=O)[C@@H]1C[C@@H](NC(=O)CCC[N+](C)(C)C)CN1C(=O)CCCCCCC/C=C\C/C=C\CCCCC = >50 h
• CCCCC/C=C\C/C=C\CCCCCCCC(=O)OCCN(CCOC(=O)CCCCCCC/C=C\C/C=C\CCCCC)C(=O)CN1C[C@@H](O)[C@@H](O)C1 = >50 h
• CCCCC/C=C\C/C=C\CCCCCCCC(=O)OCCN(CCOC(=O)CCCCCCC/C=C\C/C=C\CCCCC)C(=O)CN1C[C@@H](O)[C@H](O)C1 = >50 h
• CCCCCCCCCCCCCC(=O)OCCN(CCOC(=O)CCCCCCCCCCCCC)C(=O)CCCC(=O)O = >50 h
• CCCCC/C=C\C/C=C\CCCCCCCC(=O)OCCN(CCOC(=O)CCCCCCC/C=C\C/C=C\CCCCC)C(=O)OCCN(C)C = >50 h
• CCCCC/C=C\C/C=C\CCCCCCCCOC(=O)[C@H](CNC(=O)CN(C)C)NC(=O)CCCCCCC/C=C\C/C=C\CCCCC = >50 h
• CCCCC/C=C\C/C=C\CCCCCCCC(=O)OCCN(CCOC(=O)CCCCCCC/C=C\C/C=C\CCCCC)C(=O)CN1CCN(CCO)CC1 = >50 h
• CCCCC/C=C\C/C=C\CCCCCCCCOC(=O)[C@H](CNC(=O)C[N+](C)(C)C)NC(=O)CCCCCCC/C=C\C/C=C\CCCCC = >50 h
• CCCCC/C=C\C/C=C\CCCCCCCCOC(=O)[C@@H]1C[C@@H](NC(=O)CCCN(C)C)CN1C(=O)CCCCCCC/C=C\C/C=C\CCCCC = >50 h
• CCCCC/C=C\C/C=C\CCCCCCCCOC(=O)CC(CC(=O)OCCCCCCCC/C=C\C/C=C\CCCCC)NC(=O)OCCN(C)C = >50 h
• CCCCC/C=C\C/C=C\CCCCCCCC(=O)OCCN(CCOC(=O)CCCCCCC/C=C\C/C=C\CCCCC)C(=O)OCC[N+](C)(C)C = >50 h
